Type: biochemical
assay_context: Table 6
assay_endpoint: Azo-Reductase

Query: # query: Azo-Reductase of entry H. pylori: nitroreductase from Helicobacter pylori, SEQ ID NO: 29 (protein, listed as Helicobacter pylori) MKFLDQEKRRQLLNERHSCKMFDSHYEFSSEELEEIAEIARLSPSSYNTQPWHFVMVTNKDLKKQIAAHSYFNEEMIKSASALMVVCSLKPSELLPTGHYMQNLYPESYKVRVIPSFAQMLGVRFNHSMQKLESYILEQCYIAVGQICMGVSLMGLDSCIIGGFDPLKVGEVLEERINKPKIACLIALGKRVAEASQKSRKSKVDAITWL
Response: No
